Hey, just so you know, these numbers are from patent US20240132458A1.

Molecular target: CYP2D6 (Homo sapiens, UniProt P10635)
Construct: pooled human liver microsomes were assayed at 0.25 mg/mL concentration; from tissue; host or cells: pooled human liver microsomes
Sequence (P10635 whole entry): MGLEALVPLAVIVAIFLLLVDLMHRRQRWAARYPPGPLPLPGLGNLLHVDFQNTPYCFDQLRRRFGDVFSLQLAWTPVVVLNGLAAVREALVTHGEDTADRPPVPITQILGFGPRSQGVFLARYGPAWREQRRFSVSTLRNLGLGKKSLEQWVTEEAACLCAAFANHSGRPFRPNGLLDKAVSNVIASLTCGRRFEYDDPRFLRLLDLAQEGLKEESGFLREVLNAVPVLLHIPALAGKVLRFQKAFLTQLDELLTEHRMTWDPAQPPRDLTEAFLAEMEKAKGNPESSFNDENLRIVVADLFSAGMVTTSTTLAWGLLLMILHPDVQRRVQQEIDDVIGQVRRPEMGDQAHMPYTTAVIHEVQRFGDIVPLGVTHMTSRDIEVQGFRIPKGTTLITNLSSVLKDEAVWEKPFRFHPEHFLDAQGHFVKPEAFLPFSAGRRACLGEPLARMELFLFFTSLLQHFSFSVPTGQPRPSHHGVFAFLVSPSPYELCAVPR
Assay: Cytochrome P450 inhibition
Format: in vitro ADME
Conditions: probe dextromethorphan (O-demethylation), pooled human liver microsomes 0.25 mg/mL, read-out: CYP inhibition (% at 10 μM) 2D6
measured-metric: inhibition at 10 min, 10 µM (%)
Use % as the unit, but write only the number.

IN: Name the reported inhibition at 10 min, 10 µM value associated with the molecule CC(=O)c1cccc(NC(=O)Nc2ccc3sc(NS(=O)(=O)c4ccc(C)cc4)nc3c2)c1
OUT: 9.8

IN: Reported inhibition at 10 min, 10 µM for Cc1ccc(S(=O)(=O)Nc2nc3cc(NC(=O)NCc4ccccc4)ccc3s2)cc1 : what is it?
OUT: 9.1
